# protocol.description: Fraction unbound in human plasma
# Type: ADME, cell-free
Labelling: Fu reported below 10% becomes class 1; at or above becomes class 0.

// below: answered compounds
chem.smiles | category.label
O=C(NCCN1CCC2(CC1)C(=O)NC[C@H]2c1ccc(F)cc1)c1cc2ccccc2[nH]1 | class 0
O=C(NCCN1CCC2(CC1)C(O)=NC[C@H]2c1ccc(F)cc1)c1cnc2ccccc2c1 | class 0
C[C@@H](CN1CCC2(CC1)C(=O)NC[C@H]2c1ccc(F)cc1)NC(=O)c1cc2ccccc2[nH]1 | class 0
C[C@@H](CN1CCC2(CC1)C(=O)NC[C@H]2c1ccc(F)cc1)NC(=O)c1ccc2ccccc2c1 | class 1
O=C(NCCN1CCC2(CC1)C(O)=NC[C@H]2c1ccc(F)cc1)c1ccc(F)cc1 | class 0

Now, please, on to the next compound.
Record `O=C(C#Cc1ccccc1)NCCN1CCC2(CC1)C(=O)NC[C@H]2c1ccc(F)cc1` : is its Fu strictly below 10%? class 0
